B1: TPR 5TU (parent)
chain: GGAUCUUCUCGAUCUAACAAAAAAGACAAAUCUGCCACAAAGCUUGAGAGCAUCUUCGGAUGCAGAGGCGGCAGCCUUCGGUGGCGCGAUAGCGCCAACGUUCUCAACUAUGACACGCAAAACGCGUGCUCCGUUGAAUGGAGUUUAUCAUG

variants of: B1; assay: polymerase ribozyme fitness, log enrichment relative to wild type (log ratio); higher = more active; in vitro selection for triplet polymerase activity
Fewer inactive variants are shown than the library holds.
REPORTED_METRIC: polymerase ribozyme fitness (log ratio)

>>> print(df.to_string())
                            mutation_id                          reported_metric  value_prefix  reading
 0                          C132U A150G  polymerase ribozyme fitness (log ratio)             =    -2.47
 1                           A60G G128U  polymerase ribozyme fitness (log ratio)             =    -2.75
 2           A37C U55A C96U A113U A137U  polymerase ribozyme fitness (log ratio)             =    -4.18
 3                     G92A U127A A150U  polymerase ribozyme fitness (log ratio)             =     -4.1
 4                            G81A A97U  polymerase ribozyme fitness (log ratio)             =   -0.297
 5          A23G C36A C105A A107G U145A  polymerase ribozyme fitness (log ratio)             ≤     -4.2
 6                           C96A A137U  polymerase ribozyme fitness (log ratio)             =    -3.87
 7                           G50U U139C  polymerase ribozyme fitness (log ratio)             =    -3.65
 8                  C18G C38G G81C C93G  polymerase ribozyme fitness (log ratio)             ≤     -4.2
 9  U15G A20C G42U A52G C85U C93G C103A  polymerase ribozyme fitness (log ratio)             ≤     -4.2
10            C76U G88U A91C C93U G140C  polymerase ribozyme fitness (log ratio)             ≤     -4.2

Just for reference, the RNAGym collection of RNA variant scans (doi:10.1073/pnas.2313332121) is where these values come from.
